compounds and their reported bioavailability
Assay: Oral bioavailability in rat at 10 mg/kg
Format: ADME, organism-based
Conditions: in vivo
Provide the reading as a plain figure in %.

                                   compound  experimental_endpoint  value_reported
0  Cc1ccc(Nc2nccc(N(C)c3ccc4c(C)n(C)nc4c3)n2)cc1S(N)(=O)=O        bioavailability              72
1  CCS(=O)(=O)c1ccc(OC)c(Nc2nccc(N(C)c3ccc4c(C)n[nH]c4c3)n2)c1        bioavailability              65
2  CCS(=O)(=O)c1ccc(OC)c(Nc2nccc(Nc3ccc4c(C)n[nH]c4c3)n2)c1        bioavailability              28

Continue with the next compound.
The recorded bioavailability for COc1cc(Nc2nccc(Nc3ccc4c(C)n[nH]c4c3)n2)cc(OC)c1OC [GW612286X] is 85
